Assay: Aqueous (equilibrium) solubility study in PBS
Assay type: physicochemical
Details: pH = 7.4, 37 °C

Smiles	solubility at 24 h (µg/mL)
CC[C@@]1(O)C(=O)OCc2c1cc1n(c2=O)Cc2cc3ccccc3nc2-1	3

---

System: LNCaP-FGC cells (PSMA-expressing)
Assay: MTT cytotoxicity assay, LNCaP-FGC
Assay type: cell-based, human
Settings: Homo sapiens, 72 h, read-out: IC50 LNCaP-FGC
Recorded Endpoint: IC50 (nM)

Compound	Unit Of Measure	Experimental Value
CC[C@@]1(OC(=O)CN)C(=O)OCc2c1cc1n(c2=O)Cc2cc3ccccc3nc2-1 [CPT-B-L2]	nM	380
CC[C@@]1(OC(=O)CCCCCCCCCCCNC(=O)[C@@H](N)CCC(=O)O)C(=O)OCc2c1cc1n(c2=O)Cc2cc3ccccc3nc2-1 [CPT-D-GL12]	nM	2100
CC[C@@]1(OC(=O)CCCNC(=O)[C@@H](N)CCC(=O)O)C(=O)OCc2c1cc1n(c2=O)Cc2cc3ccccc3nc2-1 [CPT-D-GL4]	nM	3680
CC[C@@]1(OC(=O)CCCCCCCCCCCN)C(=O)OCc2c1cc1n(c2=O)Cc2cc3ccccc3nc2-1 [CPT-B-L12]	nM	1930
CC[C@@]1(OC(=O)CCCN)C(=O)OCc2c1cc1n(c2=O)Cc2cc3ccccc3nc2-1 [CPT-B-L4]	nM	370
CC[C@@]1(OC(=O)CCCCCNC(=O)[C@@H](N)CCC(=O)O)C(=O)OCc2c1cc1n(c2=O)Cc2cc3ccccc3nc2-1 [CPT-D-GL6]	nM	8170
CC[C@@]1(OC(=O)CNC(=O)[C@@H](N)CCC(=O)O)C(=O)OCc2c1cc1n(c2=O)Cc2cc3ccccc3nc2-1 [CPT-D-GL2]	nM	3680
CC[C@@]1(OC(=O)CCCCCN)C(=O)OCc2c1cc1n(c2=O)Cc2cc3ccccc3nc2-1 [CPT-B-L6]	nM	1890

---

Test system: HepG2 cells (non-PSMA-expressing)
Test: cells
Format: cell-based, human
Details: MTT, 72 h, mean ± SD, n = 3; read-out: IC50 HepG2
Parameter IC50: see the listing below.

Molecule	IC50
CC[C@@]1(OC(=O)CCCCCNC(=O)[C@@H](N)CCC(=O)N[C@@H](CCC(=O)N[C@@H](CCC(=O)N[C@@H](CC(=O)O)C(=O)N[C@@H](CCC(=O)O)C(=O)O)C(=O)O)C(=O)O)C(=O)OCc2c1cc1n(c2=O)Cc2cc3ccccc3nc2-1 [CPT-HT-J-ZL6]	> 40 µM
CC[C@@]1(OC(=O)CCCCCCCCCCCNC(=O)[C@@H](N)CCC(=O)N[C@@H](CCC(=O)N[C@@H](CCC(=O)N[C@@H](CC(=O)O)C(=O)N[C@@H](CCC(=O)O)C(=O)O)C(=O)O)C(=O)O)C(=O)OCc2c1cc1n(c2=O)Cc2cc3ccccc3nc2-1 [CPT-HT-J-ZL12]	> 40 µM

---

System: HepG2 cells (non-PSMA-expressing)
Assay: cells
Type: cell-based, human
Conditions: MTT, 72 h, mean ± SD, n = 3; read-out: IC50 HepG2

Smiles	IC50
CC[C@@]1(OC(=O)CCCCCCCCCCCNC(=O)[C@H](CCC(=O)N[C@@H](CCC(=O)N[C@@H](CCC(=O)N[C@@H](CC(=O)OC(C)(C)C)C(=O)N[C@@H](CCC(=O)OC(C)(C)C)C(=O)OC(C)(C)C)C(=O)OC(C)(C)C)C(=O)OC(C)(C)C)NC(=O)OC(C)(C)C)C(=O)OCc2c1cc1n(c2=O)Cc2cc3ccccc3nc2-1	> 40 µM

---

System: MDCK cells
Assay: cells
Assay type: cell-based
Settings: Canis lupus familiaris, MDCK, 72 h, read-out: IC50 MDCK
Procedure: The cytotoxicities of PSMA-activated prodrug CPT-HT-J-ZLn and PSMA hydrolysate CPT-D-GLn were evaluated by MTT assays on PSMA-expressing (PSMA^+) cancer cell LNCaP-FGC, non-PSMA-expressing (PSMA^−) cancer cells HepG2, MCF-7, Hela, DU145, and PC-3, and normal cells MDCK, LO2, respectively, using CPT as a positive control. […]

Smiles	IC50 [µM]
CC[C@@]1(OC(=O)CN)C(=O)OCc2c1cc1n(c2=O)Cc2cc3ccccc3nc2-1	5.16
CC[C@@]1(OC(=O)CCCN)C(=O)OCc2c1cc1n(c2=O)Cc2cc3ccccc3nc2-1	3.2
CC[C@@]1(OC(=O)CCCCCCCCCCCNC(=O)[C@@H](N)CCC(=O)O)C(=O)OCc2c1cc1n(c2=O)Cc2cc3ccccc3nc2-1	5.1
CC[C@@]1(OC(=O)CCCCCCCCCCCN)C(=O)OCc2c1cc1n(c2=O)Cc2cc3ccccc3nc2-1	5.2
CC[C@@]1(OC(=O)CCCCCN)C(=O)OCc2c1cc1n(c2=O)Cc2cc3ccccc3nc2-1	5.44
CC[C@@]1(OC(=O)CCCNC(=O)[C@@H](N)CCC(=O)O)C(=O)OCc2c1cc1n(c2=O)Cc2cc3ccccc3nc2-1	0.23
CC[C@@]1(OC(=O)CNC(=O)[C@@H](N)CCC(=O)O)C(=O)OCc2c1cc1n(c2=O)Cc2cc3ccccc3nc2-1	0.26
CC[C@@]1(OC(=O)CCCCCNC(=O)[C@@H](N)CCC(=O)O)C(=O)OCc2c1cc1n(c2=O)Cc2cc3ccccc3nc2-1	4

---

Tested on: PC-3 cells (non-PSMA-expressing)
Experiment: cells
Format: cell-based, human
Settings: Homo sapiens, PC-3, 72 h, read-out: IC50 PC-3
pIC50: −log10 of the molar value.
Recorded Endpoint: pIC50

Smiles	Censoring Sign	Experimental Value
CC[C@@]1(OC(=O)CCCCCN)C(=O)OCc2c1cc1n(c2=O)Cc2cc3ccccc3nc2-1	=	4.80
CC[C@@]1(OC(=O)CCCCCNC(=O)[C@@H](N)CCC(=O)O)C(=O)OCc2c1cc1n(c2=O)Cc2cc3ccccc3nc2-1	=	4.90
CC[C@@]1(OC(=O)CCCCCCCCCCCN)C(=O)OCc2c1cc1n(c2=O)Cc2cc3ccccc3nc2-1	=	5.19
CC[C@@]1(OC(=O)CCCCCCCCCCCNC(=O)[C@@H](N)CCC(=O)O)C(=O)OCc2c1cc1n(c2=O)Cc2cc3ccccc3nc2-1	<	4.40
CC[C@@]1(OC(=O)CN)C(=O)OCc2c1cc1n(c2=O)Cc2cc3ccccc3nc2-1	=	5.28
CC[C@@]1(OC(=O)CCCNC(=O)[C@@H](N)CCC(=O)O)C(=O)OCc2c1cc1n(c2=O)Cc2cc3ccccc3nc2-1	=	4.83
CC[C@@]1(OC(=O)CNC(=O)[C@@H](N)CCC(=O)O)C(=O)OCc2c1cc1n(c2=O)Cc2cc3ccccc3nc2-1	=	5.82
CC[C@@]1(OC(=O)CCCN)C(=O)OCc2c1cc1n(c2=O)Cc2cc3ccccc3nc2-1	=	6.00
